Organism: Rattus norvegicus
PROCEDURE DETAILS: Open TG-GATES - Regimen: Single
Type: toxicity, organism-based, Sprague-Dawley
Parameters: regimen Single, gender Male, age 6 weeks
TEST CONTEXT: in vivo, po, 100 mg/kg, 3 h, tissue Blood, route gavage, dose level Low
Please mark YES if the recorded WBC is equal to or greater than 90 x10_2/uL, and NO if it falls below.

Previously resolved entries follow.
O=C(OC[C@H]1O[C@@H](OC(=O)c2cc(O)c(O)c(OC(=O)c3cc(O)c(O)c(O)c3)c2)[C@H](OC(=O)c2cc(O)c(O)c(OC(=O)c3cc(O)c(O)c(O)c3)c2)[C@@H](OC(=O)c2cc(O)c(O)c(OC(=O)c3cc(O)c(O)c(O)c3)c2)[C@@H]1OC(=O)c1cc(O)c(O)c(OC(=O)c2cc(O)c(O)c(O)c2)c1)c1cc(O)c(O)c(OC(=O)c2cc(O)c(O)c(O)c2)c1 [TANNIC ACID] ... YES
COC(=O)C1=C(C)NC(C)=C(C(=O)OC)C1c1ccccc1[N+](=O)[O-] [NIFEDIPINE] ... YES
CN/C(=N/CCSCc1nc[nH]c1C)NC#N [CIMETIDINE] ... YES

# next compound below
Given Cc1nnc2n1-c1ccc(Cl)cc1C(c1ccccc1Cl)=NC2 [TRIAZOLAM] , state whether its WBC is at least 90 x10_2/uL.
NO

---

Species on record: Rattus norvegicus
PROCEDURE DETAILS: Open TG-GATES - Regimen: Single
Assay type: toxicity, organism-based, Sprague-Dawley
Design: regimen Single, gender Male, age 6 weeks
TEST CONTEXT: in vivo, po, 100 mg/kg, 24 h, tissue Plasma, route gavage, dose level Low
READOUT KIND: TC (mg/dL)
API: value field is a number in mg/dL; no unit string.

COC(=O)C1=C(C)NC(C)=C(C(=O)OC)C1c1ccccc1[N+](=O)[O-] [NIFEDIPINE] ... 68.4

Quick one: TC of CN/C(=N/CCSCc1nc[nH]c1C)NC#N [CIMETIDINE] ?
73.2

Also O=C(OC[C@H]1O[C@@H](OC(=O)c2cc(O)c(O)c(OC(=O)c3cc(O)c(O)c(O)c3)c2)[C@H](OC(=O)c2cc(O)c(O)c(OC(=O)c3cc(O)c(O)c(O)c3)c2)[C@@H](OC(=O)c2cc(O)c(O)c(OC(=O)c3cc(O)c(O)c(O)c3)c2)[C@@H]1OC(=O)c1cc(O)c(O)c(OC(=O)c2cc(O)c(O)c(O)c2)c1)c1cc(O)c(O)c(OC(=O)c2cc(O)c(O)c(O)c2)c1 [TANNIC ACID] , if possible.
81.4

// next record Cc1nnc2n1-c1ccc(Cl)cc1C(c1ccccc1Cl)=NC2 [TRIAZOLAM]
82.2

Quick one: CNC(=C[N+](=O)[O-])NCCSCc1ccc(CN(C)C)o1 [RANITIDINE]
70.8

---

Organism: Rattus norvegicus
PROCEDURE DETAILS: Open TG-GATES - Regimen: Single
Assay type: toxicity, organism-based, Sprague-Dawley
Set-up: regimen Single, gender Male, age 6 weeks
TEST CONTEXT: in vivo, po, 100 mg/kg, 6 h, tissue Plasma, route gavage, dose level Low
Na listing for selected compounds.

Cc1nnc2n1-c1ccc(Cl)cc1C(c1ccccc1Cl)=NC2 ... 140.8 meq/L
COC(=O)C1=C(C)NC(C)=C(C(=O)OC)C1c1ccccc1[N+](=O)[O-] ... 135.8 meq/L
CN/C(=N/CCSCc1nc[nH]c1C)NC#N ... 141.4 meq/L
CNC(=C[N+](=O)[O-])NCCSCc1ccc(CN(C)C)o1 ... 140.4 meq/L

Okay, now this compound:
Dear colleague, I am looking for the recorded Na of the following compound: O=C(OC[C@H]1O[C@@H](OC(=O)c2cc(O)c(O)c(OC(=O)c3cc(O)c(O)c(O)c3)c2)[C@H](OC(=O)c2cc(O)c(O)c(OC(=O)c3cc(O)c(O)c(O)c3)c2)[C@@H](OC(=O)c2cc(O)c(O)c(OC(=O)c3cc(O)c(O)c(O)c3)c2)[C@@H]1OC(=O)c1cc(O)c(O)c(OC(=O)c2cc(O)c(O)c(O)c2)c1)c1cc(O)c(O)c(OC(=O)c2cc(O)c(O)c(O)c2)c1
140.6 meq/L

Data origin: ChEMBL document CHEMBL3885861
